- Tested on: CCRF-CEM leukemia
- TEST_DESCRIPTION: NCI tumour cell line growth inhibition, 48 h
EXPERIMENTAL_READOUT: TGI

| MOLECULE | ASSAY_RESULT |
| --- | --- |
| C=C1C(=O)OC2C1C(OC(=O)/C(C)=C/C)CC(O)(CCl)C1C(O)C3OC3(C)C21O (configuration not stated) | > 50 µM |
| COc1ccc(/C=N/N=C(\N)NO)c(OC)c1 | > 100 µM |
| CC1(C)CC(=O)c2c(nc3ccc4ccccc4c3c2-c2ccc(NC(=O)CCCCCCCCC(=O)Nc3ccc(-c4c5c(nc6ccc7ccccc7c46)CC(C)(C)CC5=O)cc3)cc2)C1 | > 100 µM |
| CC(=O)C1C(=O)C(=O)N(c2ccccc2C(C)C)C1=O (configuration not stated) | > 100 µM |
| CC1CC/C(=C\c2ccc(Cl)cc2)C2OC(N)=C(C#N)C(c3ccc(Cl)cc3)=C12 (configuration not stated) | 31.2 µM |
| CCOC(=O)C(NC(=O)CC)(Nc1cc(C)on1)C(F)(F)F (configuration not stated) | > 100 µM |
| O=c1ccn(CC2(CO)CC(Cc3ccccc3)C2)c(=O)[nH]1 (configuration not stated) | > 100 µM |
| CCOC(=O)c1cnc2oc3ccc(O)cc3c2c1-c1ccccc1 | > 100 µM |
| O=CC1CCCc2ccccc21 (configuration not stated) | > 72 µM |
| Cc1cc(Cl)ccc1NC(=O)CC/C(CC(=O)C(C)C)=N\NC(=O)C[n+]1ccccc1 | > 100 µM |
| O=C(Nc1ccc(Cl)cc1)Nc1ccc(Nc2nncc3ccccc23)cc1 | 17 µM |
| Oc1c([Si](c2ccccc2)(c2ccccc2)c2ccccc2)cc2ccccc2c1-c1c(O)c([Si](c2ccccc2)(c2ccccc2)c2ccccc2)cc2ccccc12 | > 100 µM |
| C[CH2][Sn]([CH2]C)([O]C(=O)C(OC(C)=O)c1ccccc1)[O]C(=O)C(OC(C)=O)c1ccccc1 (configuration not stated) | 6.15 µM |
| C[C@]12CC[C@H]3[C@@H](CC[C@]4(O)C[C@@H](O)CC[C@]34/C=N/O)[C@@]1(O)CC[C@@H]2C1=COC(=O)C1 | > 100 µM |
| COC(=O)CCC(NC(=S)N/N=C/c1ccco1)C(=O)OC (configuration not stated) | > 100 µM |
| CC1(O)CC(=O)c2c(cc3ccc(-c4c5c(c(O)c6c(O)cccc46)C(=O)CC(C)(O)C5)c(O)c3c2O)C1 (configuration not stated) | 10.5 µM |
| COC(=O)C1=C(c2cc(OC)c(OC)c(OC)c2)OC(c2ccc(OC)c(OC)c2)C1 (configuration not stated) | > 100 µM |
| COc1cc(/C=C2\Sc3scc(-c4cccc([N+](=O)[O-])c4)[n+]3C2=O)cc(OC)c1OC | 90.6 µM |
| O=c1nc2oc3ccc4ccccc4c3cc-2s1 | > 100 µM |
| N#Cc1c(-c2ccc(Cl)cc2)c2c(n(C3OC(CO)C(O)C(O)C3O)c1=S)CCC2 (configuration not stated) | 56.7 µM |
| O=C(Nc1nc2ccccc2s1)c1cc([N+](=O)[O-])ccc1Cl | 8.77 µM |
| O=C(Nc1ccccc1)N(CCCCN(Cc1ccccc1)C(=O)Nc1ccccc1)Cc1ccccc1 | > 100 µM |
| COc1ccc(-c2cc(-c3ccc(Nc4ccnc5cc(Cl)ccc45)cc3)[nH]c(=O)c2C#N)c2ccccc12 | > 100 µM |
| CN(C(=O)c1ccco1)C(=S)N1CCN(c2ccccc2)CC1 | > 100 µM |
| COc1ccc(-c2cc(-c3cc4cc(Br)ccc4nc3Cl)c(C#N)c(N)n2)cc1 | > 12.5 µM |
| CCN(C(=S)N[C@H](C(=O)N[C@@H](C)C(=O)OC)C(C)C)c1ccccc1 | > 100 µM |
| O=C(COc1ccc(/C=C2\Oc3ccccc3C2=O)cc1)Nc1nc2c(s1)CCCC2 | 0.309 µM |
| Cc1ccc(Nc2nc(C)c(C(/C=C/c3ccc(/C=C/C(=N/NC(=O)C[n+]4ccccc4)c4sc(Nc5ccc(C)cc5[N+](=O)[O-])nc4C)cc3)=N\NC(=O)C[n+]3ccccc3)s2)c([N+](=O)[O-])c1 | > 100 µM |
| O=C(O)c1ccn(-c2cccc(-n3ccc(C(=O)O)n3)n2)n1 | > 100 µM |
| O=C(Nc1ccc(Cl)c(Cl)c1)O/N=C\c1c(Cl)ccc([N+](=O)[O-])c1Cl | 5.1 µM |
| Nc1ccccc1CC(O)C(=O)O (configuration not stated) | > 100 µM |
| COc1c(Cl)cc(NC(=S)C#N)cc1Cl | > 100 µM |
